// values below are reported pEC50
# target.entity: UniProt:P27958
# measurement.description: cell-based
# settings: EC50, NS3-NS4 activity
pEC50: −log10 of the molar value.

compound	pEC50
CC(C)(C)OC(=O)N[C@H]1CCCCC/C=C\[C@@H]2C[C@@]2(C(=O)NS(=O)(=O)c2cc(Cl)sc2Cl)NC(=O)[C@@H]2C[C@@H](OC(=O)N3CCc4ccccc4C3)CN2C1=O [Compound 357]	6.00 to 7.00
CCC1(S(=O)(=O)NC(=O)[C@@]23C[C@H]2CCCCCCC[C@H](NC(=O)OC(C)(C)C)C(=O)N2C[C@H](OC(=O)N4Cc5cccc(F)c5C4)C[C@H]2C(=O)N3)CC1 [Compound 650]	> 7.00
CC(C)(C)OC(=O)N[C@H]1CCCCC/C=C\[C@@H]2C[C@@]2(C(=O)NS(=O)(=O)Cc2cc(Cl)ccc2Cl)NC(=O)[C@@H]2C[C@@H](OC(=O)N3Cc4cccc(F)c4C3)CN2C1=O [Compound 525]	6.00 to 7.00
Cc1ccccc1S(=O)(=O)NC(=O)[C@@]12C[C@H]1/C=C\CCCCC[C@H](NC(=O)N(C)C(C)(C)C)C(=O)N1C[C@H](OC(=O)N3Cc4cccc(F)c4C3)C[C@H]1C(=O)N2 [Compound 358]	> 7.00
CC(C)(C)OC(=O)N[C@H]1CCCCC/C=C\[C@@H]2C[C@@]2(C(=O)NS(=O)(=O)c2ccc(F)cc2F)NC(=O)[C@@H]2C[C@@H](OC(=O)N3Cc4cccc(F)c4C3)CN2C1=O [Compound 310]	> 7.00

###

# target.entity: NS3-NS4 (Hepatitis C virus genotype 1a)
# measurement.description: cell-based
# settings: EC50, NS3-NS4 activity
pEC50: −log10 of the molar value.

smiles.text	pEC50
CC(C)(C)OC(=O)N[C@H]1CCCCC/C=C\[C@@H]2C[C@@]2(C(=O)NOCCO)NC(=O)[C@@H]2C[C@@H](OC(=O)N3Cc4cccc(F)c4C3)CN2C1=O	6.00 to 7.00
CC(=O)O[C@@H]1C[C@H]2C(=O)N[C@]3(C(=O)NS(=O)(=O)C4CC4)C[C@H]3/C=C\CCCCC[C@H](Nc3ncc(-c4ccccc4)s3)C(=O)N2C1	5.00 to 6.00
Cc1cccc(S(=O)(=O)NC(=O)[C@@]23C[C@H]2/C=C\CCCCC[C@H](NC(=O)OC(C)(C)C)C(=O)N2C[C@H](OC(=O)N4Cc5cccc(F)c5C4)C[C@H]2C(=O)N3)c1	> 7.00
CC(C)(C)OC(=O)N[C@H]1CCCCC/C=C\[C@@H]2C[C@@]2(C(=O)NS(=O)(=O)c2ccccc2Cl)NC(=O)[C@@H]2C[C@@H](OC(=O)N3Cc4cccc(F)c4C3)CN2C1=O	> 7.00
CC(C)(C)OC(=O)N[C@H]1CCCCC/C=C\[C@@H]2C[C@@]2(C(=O)NOc2cccc(F)c2)NC(=O)[C@@H]2C[C@@H](OC(=O)N3Cc4cccc(F)c4C3)CN2C1=O	5.00 to 6.00

###

// values below are reported pEC50
# target.entity: NS3-NS4 (Hepatitis C virus genotype 1a)
# measurement.description: cell-based
# settings: EC50, NS3-NS4 activity
pEC50: −log10 of the molar value.

smiles.text	pEC50
CN(C(=O)N[C@H]1CCCCC/C=C\[C@@H]2C[C@@]2(C(=O)NS(=O)(=O)C2(C)CC2)NC(=O)[C@@H]2C[C@@H](OC(=O)N3Cc4cccc(Cl)c4C3)CN2C1=O)C(C)(C)C	> 7.00
O=C1N[C@]2(C(=O)NS(=O)(=O)C3CC3)C[C@H]2/C=C\CCCCC[C@H](Nc2nc(-c3ccccn3)cs2)C(=O)N2C[C@H](OC(=O)N3Cc4cccc(F)c4C3)C[C@@H]12	> 7.00
Cc1ccc(S(=O)(=O)NC(=O)[C@@]23C[C@H]2/C=C\CCCCC[C@H](NC(=O)OC(C)(C)C)C(=O)N2C[C@H](OC(=O)N4Cc5cccc(F)c5C4)C[C@H]2C(=O)N3)o1	> 7.00

###

# measurement.description: Single ascending dose study, fasted and fed: safety and non-compartmental plasma PK
# Assay type: in vivo, healthy volunteers (human)
# settings: human, plasma, oral, 1600 mg, Geometric Mean of 10 subjects; single 1600 mg dose, Fasted; read-out: t½ (converted)
readout.type: half-life (h)

smiles.text	readout.type	quantitative.readout
CC(C)(C)OC(=O)N[C@H]1CCCCC/C=C\[C@@H]2C[C@@]2(C(=O)NS(=O)(=O)C2CC2)NC(=O)[C@@H]2C[C@@H](OC(=O)N3Cc4cccc(F)c4C3)CN2C1=O	half-life	2.38

###

# target.entity: NS3-NS4 (Hepatitis C virus genotype 1a)
# measurement.description: cell-based
# settings: EC50, NS3-NS4 activity
pEC50: −log10 of the molar value.
// values below are reported pEC50
readout.type: pEC50

molecule	readout.type	result
COc1cccc(ONC(=O)[C@@]23C[C@H]2/C=C\CCCCC[C@H](NC(=O)OC(C)(C)C)C(=O)N2C[C@H](OC(=O)N4Cc5cccc(F)c5C4)C[C@H]2C(=O)N3)c1	pEC50	5.00 to 6.00
O=C1N[C@]2(C(=O)NS(=O)(=O)C3CC3)C[C@H]2/C=C\CCCCC[C@H](Nc2nc(-c3cccc(C(F)(F)F)c3)cs2)C(=O)N2C[C@H](OC(=O)N3Cc4cccc(F)c4C3)C[C@@H]12	pEC50	> 7.00
O=C1N[C@]2(C(=O)NS(=O)(=O)C3CC3)C[C@H]2/C=C\CCCCC[C@H](Nc2nc(-c3ccc(F)cc3F)cs2)C(=O)N2C[C@H](OC(=O)N3Cc4cccc(F)c4C3)C[C@@H]12	pEC50	> 7.00
CC(C)COC(=O)N[C@H]1CCCCC/C=C\[C@@H]2C[C@@]2(C(=O)NS(=O)(=O)C2CC2)NC(=O)[C@@H]2C[C@@H](OC(=O)N3Cc4cccc(F)c4C3)CN2C1=O	pEC50	> 7.00
CC(C)(C)OC(=O)N[C@H]1CCCCC/C=C\C2CC2(C(=O)NOc2ccccc2)NC(=O)[C@@H]2C[C@@H](OC(=O)N3Cc4cccc(F)c4C3)CN2C1=O (stereo in doubt)	pEC50	> 7.00

###

# target.entity: NS3-NS4 (Hepatitis C virus genotype 1a)
# measurement.description: cell-based
# settings: EC50, NS3-NS4 activity
// values below are reported EC50
readout.type: EC50

compound	readout.type	result
O=C1N[C@]2(C(=O)NS(=O)(=O)C3CC3)C[C@H]2/C=C\CCCCC[C@H](NC(=O)N2CCC(F)(F)C2)C(=O)N2C[C@H](OC(=O)N3Cc4cccc(F)c4C3)C[C@@H]12 [Compound 416]	EC50	100 to 1000 nM
CCC(C)(C)OC(=O)N[C@H]1CCCCC/C=C\[C@@H]2C[C@@]2(C(=O)NS(=O)(=O)C2CC2)NC(=O)[C@@H]2C[C@@H](OC(=O)N3Cc4cccc(F)c4C3)CN2C1=O [Compound 405]	EC50	< 100 nM
O=C1NC2(C(=O)NS(=O)(=O)C3CC3)C[C@H]2/C=C\CCCCC[C@H](Nc2nc(-c3ccc(F)cc3)cs2)C(=O)N2C[C@H](OC(=O)N3Cc4cccc(F)c4C3)C[C@@H]12 (stereo partly drawn) [Compound 224]	EC50	< 100 nM

###

// values below are reported EC50
# target.entity: NS3-NS4 (Hepatitis C virus genotype 1a, UniProt P27958)
# Sequence (P27958 1027-1657): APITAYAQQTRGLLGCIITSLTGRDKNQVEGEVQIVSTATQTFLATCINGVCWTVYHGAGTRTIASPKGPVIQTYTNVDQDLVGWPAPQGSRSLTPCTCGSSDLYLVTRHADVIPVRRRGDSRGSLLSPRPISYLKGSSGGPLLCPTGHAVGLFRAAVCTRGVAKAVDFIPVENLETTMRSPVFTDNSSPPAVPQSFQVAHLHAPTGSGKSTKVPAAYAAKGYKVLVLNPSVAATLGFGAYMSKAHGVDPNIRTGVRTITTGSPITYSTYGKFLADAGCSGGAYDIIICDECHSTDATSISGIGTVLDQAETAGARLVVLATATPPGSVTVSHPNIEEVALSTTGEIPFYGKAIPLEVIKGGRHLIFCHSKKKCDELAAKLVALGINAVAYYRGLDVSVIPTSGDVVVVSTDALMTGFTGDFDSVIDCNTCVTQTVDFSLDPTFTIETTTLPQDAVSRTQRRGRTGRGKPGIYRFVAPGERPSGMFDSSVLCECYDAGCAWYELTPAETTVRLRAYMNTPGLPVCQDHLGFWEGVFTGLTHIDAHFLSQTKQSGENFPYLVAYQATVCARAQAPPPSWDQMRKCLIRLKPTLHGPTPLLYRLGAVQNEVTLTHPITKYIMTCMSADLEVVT
# Sequence (P27958 1658-1711): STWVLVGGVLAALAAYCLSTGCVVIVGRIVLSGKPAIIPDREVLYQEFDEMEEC
# measurement.description: cell-based
# settings: EC50, NS3-NS4 activity
readout.type: EC50

compound	result
CN(C(=O)N[C@H]1CCCCC/C=C\[C@@H]2C[C@@]2(C(=O)NS(=O)(=O)C2CC2)NC(=O)[C@@H]2C[C@@H](OC(=O)N3Cc4cccc(Cl)c4C3)CN2C1=O)C(C)(C)C [Compound 424]	< 100 nM
Cc1cc(C)cc(ONC(=O)[C@@]23C[C@H]2/C=C\CCCCC[C@H](NC(=O)OC(C)(C)C)C(=O)N2C[C@H](OC(=O)N4Cc5cccc(F)c5C4)C[C@H]2C(=O)N3)c1 [Compound 715]	1000 to 10000 nM
CC(C)(C)OC(=O)N[C@H]1CCCCC/C=C\[C@@H]2C[C@@]2(C(=O)NOc2ccccc2)NC(=O)[C@@H]2C[C@@H](OC(=O)N3Cc4cccc(F)c4C3)CN2C1=O [Compound 711]	1000 to 10000 nM
Cc1ccccc1CS(=O)(=O)NC(=O)[C@@]12C[C@H]1CCCCCCC[C@H](NC(=O)OC(C)(C)C)C(=O)N1C[C@H](OC(=O)N3Cc4cccc(F)c4C3)C[C@H]1C(=O)N2 [Compound 613]	< 100 nM
CC(C)(C)OC(=O)N[C@H]1CCCCC/C=C\[C@@H]2C[C@@]2(C(=O)NS(=O)(=O)Cc2ccc(Cl)c(Cl)c2)NC(=O)[C@@H]2C[C@@H](OC(=O)N3Cc4cccc(F)c4C3)CN2C1=O [Compound 526]	100 to 1000 nM
